Values compiled from paper PMC7156458.

# STUDY SYSTEM: Aβ42 (Homo sapiens, UniProt P05067)
# Sequence (P05067 672-713): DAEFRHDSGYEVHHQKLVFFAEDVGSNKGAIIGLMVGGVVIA
# METHOD DESCRIPTION: Th-T (thioflavin-T) assay of Aβ42 aggregation
# Assay type: biochemical
# DETAILS: head suffix _50 (concentration 50); reading M80
Reported Th-T fluorescence of Aβ42 (sheet Fig. 7a), mean of three wells by item:
Just the number, please.

{"COMPOUND": "C=C1CCC2C(C)(CCC=C(C)C)C(O)CCC2(C)C1Cc1c(OC)oc(CO)c(C(=O)OC)c1=O (centres unmarked)", "RESULT": 0.4702}
{"COMPOUND": "C=C1CCC2C(C)(CCC=C(C)C)C(O)CCC2(C)C1Cc1c(OC)oc(C)c(C(=O)OC)c1=O (centres unmarked)", "RESULT": 2.329}
{"COMPOUND": "C=C1CCC2C(C)(CCC=C(C)C)C(O)CCC2(C)C1Cc1c(OC)oc(CO)c(C)c1=O (centres unmarked)", "RESULT": 1.423}
{"COMPOUND": "C=C1CC[C@@H]2[C@](C)(CC[C@H]3O[C@H](C=C(C)C)C[C@@]23C)[C@@H]1Cc1c(OC)oc(CO)c(C(=O)OC)c1=O", "RESULT": 0.3266}

Okay, next one:
Exercise: Fill in the blank: the reported Th-T fluorescence of Aβ42 (sheet Fig. 7a), mean of three wells of C=C1CC[C@@H]2[C@](C)(CC[C@H]3O[C@H](C=C(C)C)C[C@@]23C)[C@@H]1Cc1c(OC)oc(CO)c(C)c1=O is ____.
Key: 2.1
